- assay_protocol: cAMP Responsive Elements (CRE) small molecule antagonists, cell-based qHTS assay (AID 1963591); further: on the % scale 0 is the no-effect control and ±100 the full control effect
- reported_conditions: CRE-bla HEK293T, beta-lactamase FRET ratio; series mostly up to 92.4 µM
Results filed as inconclusive are left out. Calls of active or inactive are those of the source. The call rests on the fitted dose curve; in most records, active means well fitted inhibition curve with a large enough effect in the signal ratio in the repeat runs (not every such curve was filed as active); inconclusive means weak or mixed curves, or effect the other way; inactive means flat fitted curve, though single readings scatter; the % refers to the signal ratio.
measured_endpoint: activity change, negative = inhibition

1) CCCCCCC(CCCCCCCCCCC(=O)OCC(COC(C)=O)OC(C)=O)OC(C)=O (stereo not given)    inactive
2) CC(Cl)C(Cl)Cl (stereo not given)    inactive
3) CC(C)(C)C(=O)CC(=O)C(C)(C)C    inactive
4) CCCCCCCCCCCCS(=O)(=O)Cl    -6.5% [at 18.9 µM] (inactive)
5) CCCCN(CCCC)C(=O)N(CCCC)CCCC    inactive
